Measured Post-emerge Herbicidal Activity AMARE, listed per entry for reference.
test system: redroot pigweed (Amaranthus retroflexus, AMARE); assay: Post-emerge test, greenhouse herbicide activity screening; type: in vivo; conditions: 250 g ai/ha; phytotoxicity rating 0-100 (0 no damage, 100 complete death), 14 days after application
# print the numeric value only

Below, 4 compounds whose answers are already recorded.
Query: # Post-emerge Herbicidal Activity AMARE lookup, item "CCc1ccc(C(=O)Nc2c(OC)c(Cl)cc(F)c2-n2c(=O)cc(C(F)(F)F)n(C)c2=O)cc1"
Reply: 100

Query: # Post-emerge Herbicidal Activity AMARE lookup, item CCOC(=O)C(C)Nc1cc(Cl)cc(F)c1-n1c(=O)cc(C(F)(F)F)n(C)c1=O (centres unmarked)
Reply: 100

Query: # Post-emerge Herbicidal Activity AMARE lookup, item "C=C(C)C(=O)N(C(=O)C(=C)C)c1c(OC)c(Cl)cc(F)c1-n1c(=O)cc(C(F)(F)F)n(C)c1=O"
Reply: 10

Query: # Post-emerge Herbicidal Activity AMARE lookup, item "C=C(C)C(=O)Nc1c(OC)c(Cl)cc(F)c1-n1c(=O)cc(C(F)(F)F)n(C)c1=O"
Reply: 40

Could you now consider this next compound?
Query: # Post-emerge Herbicidal Activity AMARE lookup, item "CCc1ccc(C(=O)Nc2c(OCC#N)c(Cl)cc(F)c2-n2c(=O)cc(C(F)(F)F)n(C)c2=O)cc1"
Reply: 100

----------
Measured Pre-emerge phytotoxicity rating (0-100), crop damage, CORN, listed per entry for reference.
test system: field corn (Zea mays L., var. Dekalb 535, CORN); test: Pre-emerge test, crop safety; format: in vivo; conditions: 250 g ai/ha; rated 14 days after application; 0 = no damage, 100 = complete death
# print the numeric value only

Query: # Pre-emerge phytotoxicity rating (0-100), crop damage, CORN lookup, item COc1c(Cl)cc(F)c(-n2c(=O)cc(C(F)(F)F)n(C)c2=O)c1NC(=O)c1c(F)cccc1F [2-47]
Reply: 99

Query: # Pre-emerge phytotoxicity rating (0-100), crop damage, CORN lookup, item COc1c(Cl)cc(F)c(-n2c(=O)cc(C(F)(F)F)n(C)c2=O)c1NC(=O)c1ccc2c(c1)OCO2 [2-73]
Reply: 95

Query: # Pre-emerge phytotoxicity rating (0-100), crop damage, CORN lookup, item COc1c(Cl)cc(F)c(-n2c(=O)cc(C(F)(F)F)n(C)c2=O)c1NC(=O)c1cccc(Cl)c1 [2-54]
Reply: 98

Query: # Pre-emerge phytotoxicity rating (0-100), crop damage, CORN lookup, item COc1c(Cl)cc(F)c(-n2c(=O)cc(C(F)(F)F)n(C)c2=O)c1NC(=O)c1ccc(Cl)c(Cl)c1 [2-59]
Reply: 70

Query: # Pre-emerge phytotoxicity rating (0-100), crop damage, CORN lookup, item COc1c(Cl)cc(F)c(-n2c(=O)cc(C(F)(F)F)n(C)c2=O)c1NC(=O)C=Cc1ccccc1 [2-78]
Reply: 10

Query: # Pre-emerge phytotoxicity rating (0-100), crop damage, CORN lookup, item COc1c(Cl)cc(F)c(-n2c(=O)cc(C(F)(F)F)n(C)c2=O)c1NC(=O)c1ccc(CCl)cc1 [2-36]
Reply: 0

Query: # Pre-emerge phytotoxicity rating (0-100), crop damage, CORN lookup, item COc1c(Cl)cc(F)c(-n2c(=O)cc(C(F)(F)F)n(N)c2=O)c1NC(=O)c1ccc(F)cc1F [2-44]
Reply: 70

Could you now consider this next compound?
Query: # Pre-emerge phytotoxicity rating (0-100), crop damage, CORN lookup, item COc1ccc(C(=O)Nc2c(OC)c(Cl)cc(F)c2-n2c(=O)cc(C(F)(F)F)n(C)c2=O)cc1 [2-63]
Reply: 100
